Quick reference for EC50 among some compounds
- Test system: HIV-1Ba-L virus strain
- ASSAY PROTOCOL: Inhibition of viral replication in PBMC infected with HIV-1Ba-L
- Assay type: cell-based
- ASSAY CONTEXT: Human immunodeficiency virus 1, PBMC
# unit: µg/mL | format: bare number

Lookup: EC50 for Cc1nnc(C(C)C)n1C1CC2CCC(C1)N2CC[C@H](NC(=O)C1CCCCC1)c1cccs1 (some centres unmarked) ?
Found: 0.365

Lookup: EC50 for Cc1nnc(C(C)C)n1C1CC2CCC(C1)N2CCC(NC(=O)C1CCC(F)(F)CC1)c1cccs1 (centres unmarked) ?
Found: 0.0912

Lookup: EC50 for Cc1nnc(C(C)C)n1C1CC2CCC(C1)N2CC[C@H](NC(=O)C1CCCC1)c1cccs1 (some centres unmarked) ?
Found: 0.289

Lookup: EC50 for Cc1nnc(C(C)C)n1C1CC2CCC(C1)N2CC[C@H](NC(=O)C1CCC(F)(F)CC1)c1ccsc1 (some centres unmarked) ?
Found: 0.00513

Lookup: EC50 for Cc1ccc([C@H](CCN2C3CCC2CC(n2c(C)nnc2C(C)C)C3)NC(=O)C2CCC(F)(F)CC2)s1 (some centres unmarked) ?
Found: 0.236

----------
- ASSAY PROTOCOL: Pharmacokinetic experiment on Beagles
- ASSAY CONTEXT: male, beagle, dog, plasma, intravenous, 3 mg/kg
MEASURED ATTRIBUTE: AUC(0-t) (ng·h/mL)
# unit: ng·h/mL | format: bare number

Lookup: AUC(0-t) for Cc1nnc(C(C)C)n1C1CC2CCC(C1)N2CC[C@H](NC(=O)C1CCC(F)(F)CC1)c1ccsc1 (stereo partly shown) [Compound 22] ?
Found: 10900

----------
- ASSAY PROTOCOL: Pharmacokinetic experiment on Beagles
- ASSAY CONTEXT: male, beagle, dog, plasma, iv, 3 mg/kg
MEASURED ATTRIBUTE: MRT

Lookup: MRT for Cc1nnc(C(C)C)n1C1CC2CCC(C1)N2CC[C@H](NC(=O)C1CCC(F)(F)CC1)c1ccsc1 (stereo partly shown) [Compound 22] ?
Found: 1.65 h

----------
- ASSAY PROTOCOL: Cytotoxicity (CC50) in TZM-bl cells
- Format: cell-based
- ASSAY CONTEXT: human; TZM-bl cells (Table 3); read-out: CC50
MEASURED ATTRIBUTE: CC50

| COMPOUND | MEASURED ATTRIBUTE | RECORDED MEASUREMENT |
| --- | --- | --- |
| Cc1nnc(C(C)C)n1C1CCN(CC[C@H](NC(=O)C2CCCC2)c2cccs2)CC1 | CC50 | > 200 µg/mL |
| CC(=O)N[C@@H](CCN1C2CCC1CC(n1c(C)nc3c1CCN(C(C)=O)C3)C2)c1nccs1 (some centres unmarked) | CC50 | > 200 µg/mL |

Lookup: CC50 for Cc1nnc(C(C)C)n1C1CC2CCC(C1)N2CC[C@H](NC(=O)C1CCCC1)c1ccc(F)nc1 (some centres unmarked) ?
Found: > 200 µg/mL

Lookup: CC50 for Cc1nnc(C(C)C)n1C1CCN(CC[C@H](NC(=O)C2CCCC2)c2cccnc2)CC1 ?
Found: > 100 µg/mL

Lookup: CC50 for Cc1nnc(C(C)C)n1C1CCN(CC[C@H](NC(=O)C2CCCCC2)c2cccs2)CC1 ?
Found: > 200 µg/mL

Lookup: CC50 for Cc1nnc(C(C)C)n1[C@@H]1C[C@H]2CC[C@@H](C1)N2CC[C@H](NC(=O)C1CCC(F)(F)CC1)c1ccccc1 [Maraviroc, reference compound] ?
Found: > 200 µg/mL

Lookup: CC50 for CCCC(=O)N1CCc2c(nc(C)n2C2CC3CCC(C2)N3CC[C@H](NC(C)=O)c2ccc(F)s2)C1 (some centres unmarked) ?
Found: > 200 µg/mL

Lookup: CC50 for Cc1nnc(C(C)C)n1C1CC2CCC(C1)N2CC[C@H](NC(=O)C1CCCC1)c1cccs1 (some centres unmarked) ?
Found: > 200 µg/mL

Lookup: CC50 for Cc1nnc(C(C)C)n1C1CC2CCC(C1)N2CC[C@H](NC(=O)C1CCCCC1)c1cccs1 (some centres unmarked) ?
Found: > 200 µg/mL
